# target under test: Toxin B (Clostridioides difficile)
# Sequence (P18177 whole entry, the tested form may be a part): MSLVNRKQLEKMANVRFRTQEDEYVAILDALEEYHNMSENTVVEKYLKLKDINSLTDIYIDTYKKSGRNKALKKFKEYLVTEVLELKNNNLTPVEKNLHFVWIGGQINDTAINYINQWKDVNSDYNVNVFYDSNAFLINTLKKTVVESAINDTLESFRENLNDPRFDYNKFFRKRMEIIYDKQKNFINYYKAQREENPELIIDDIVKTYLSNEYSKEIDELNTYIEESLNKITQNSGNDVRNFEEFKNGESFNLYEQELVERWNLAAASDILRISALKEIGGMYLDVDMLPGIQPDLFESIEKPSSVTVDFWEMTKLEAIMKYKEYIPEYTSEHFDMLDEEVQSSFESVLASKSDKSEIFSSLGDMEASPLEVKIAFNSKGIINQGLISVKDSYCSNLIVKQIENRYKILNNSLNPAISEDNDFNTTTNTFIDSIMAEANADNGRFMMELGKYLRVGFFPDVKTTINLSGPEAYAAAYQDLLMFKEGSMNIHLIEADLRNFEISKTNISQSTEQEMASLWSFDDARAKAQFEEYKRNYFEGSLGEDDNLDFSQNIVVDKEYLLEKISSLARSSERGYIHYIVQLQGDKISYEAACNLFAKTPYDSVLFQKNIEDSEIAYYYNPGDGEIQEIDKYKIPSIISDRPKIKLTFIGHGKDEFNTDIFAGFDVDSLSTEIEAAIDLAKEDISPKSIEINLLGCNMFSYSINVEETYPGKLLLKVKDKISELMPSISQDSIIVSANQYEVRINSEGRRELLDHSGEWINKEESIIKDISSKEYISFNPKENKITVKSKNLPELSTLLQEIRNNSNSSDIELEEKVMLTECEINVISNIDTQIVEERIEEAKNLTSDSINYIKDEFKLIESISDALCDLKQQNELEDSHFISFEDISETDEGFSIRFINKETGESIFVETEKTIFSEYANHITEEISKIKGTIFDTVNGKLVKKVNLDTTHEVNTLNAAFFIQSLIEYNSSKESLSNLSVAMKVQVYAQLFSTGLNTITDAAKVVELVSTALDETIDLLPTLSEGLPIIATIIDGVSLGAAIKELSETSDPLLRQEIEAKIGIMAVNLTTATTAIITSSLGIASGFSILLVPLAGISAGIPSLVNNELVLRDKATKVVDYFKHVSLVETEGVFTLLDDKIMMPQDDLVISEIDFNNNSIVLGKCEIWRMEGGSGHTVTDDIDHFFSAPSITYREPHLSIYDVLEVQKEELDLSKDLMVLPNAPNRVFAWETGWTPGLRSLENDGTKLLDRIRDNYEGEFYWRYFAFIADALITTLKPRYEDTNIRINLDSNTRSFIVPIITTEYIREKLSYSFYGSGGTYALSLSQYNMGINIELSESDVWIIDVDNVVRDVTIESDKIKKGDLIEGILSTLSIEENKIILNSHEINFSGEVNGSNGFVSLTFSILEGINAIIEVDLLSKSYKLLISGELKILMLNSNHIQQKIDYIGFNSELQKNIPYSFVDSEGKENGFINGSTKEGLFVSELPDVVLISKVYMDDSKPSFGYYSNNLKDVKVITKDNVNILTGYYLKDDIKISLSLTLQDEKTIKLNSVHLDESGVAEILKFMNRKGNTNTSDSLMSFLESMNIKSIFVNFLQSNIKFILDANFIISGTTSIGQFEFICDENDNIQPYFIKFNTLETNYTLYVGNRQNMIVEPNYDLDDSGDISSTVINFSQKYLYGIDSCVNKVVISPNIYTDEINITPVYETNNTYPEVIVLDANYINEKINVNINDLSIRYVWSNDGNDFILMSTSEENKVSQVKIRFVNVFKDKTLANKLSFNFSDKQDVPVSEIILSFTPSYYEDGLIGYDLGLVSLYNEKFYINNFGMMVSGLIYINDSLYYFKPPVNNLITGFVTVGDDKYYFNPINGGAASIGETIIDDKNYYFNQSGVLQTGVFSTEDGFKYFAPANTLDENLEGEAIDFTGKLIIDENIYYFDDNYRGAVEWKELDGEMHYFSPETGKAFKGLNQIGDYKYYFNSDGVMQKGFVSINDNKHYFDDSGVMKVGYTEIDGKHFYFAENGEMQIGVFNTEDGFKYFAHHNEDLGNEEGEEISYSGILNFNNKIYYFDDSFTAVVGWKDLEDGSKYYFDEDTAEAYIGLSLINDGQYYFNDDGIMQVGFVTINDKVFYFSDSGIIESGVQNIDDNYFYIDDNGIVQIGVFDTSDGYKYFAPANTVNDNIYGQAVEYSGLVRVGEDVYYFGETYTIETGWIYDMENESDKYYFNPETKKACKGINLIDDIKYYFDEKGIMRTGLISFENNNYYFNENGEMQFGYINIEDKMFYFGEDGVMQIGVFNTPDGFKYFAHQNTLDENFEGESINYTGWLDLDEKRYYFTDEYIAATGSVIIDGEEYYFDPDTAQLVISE
# experimental details: Inhibition of C-terminal 6-His tagged recombinant Clostridium difficile toxin B glucosyltransferase domain assessed as reduction in UDP-glucose hydrolysis activity using UDP-glucose substrate and ADP Alexa633 tracer incubated for 3 hrs by fluorescence polarization assay
pIC50: −log10 of the molar value.
Each entry below carries its reported pIC50.

smiles representation: Cc1ccnc(C(=O)c2ccc(CN3C(=O)c4ccc(Cl)cc4NC(=O)[C@H]3Cc3ccccn3)cc2)c1
pIC50: 7.13
--
smiles representation: Cc1cnc(NC(=O)c2ccc(CN3C(=O)c4ccc(Cl)cc4NC(=O)[C@H]3Cc3ccccn3)cc2Cl)cn1
pIC50: 8.05
--
smiles representation: Cc1cccc(C(=O)c2ccc(CN3C(=O)c4ccc(Cl)cc4NC(=O)[C@H]3Cc3ccccn3)cc2)n1
pIC50: 6.47
--
smiles representation: Cc1ccc(NC(=O)c2ccc(CN3C(=O)c4ccc(Cl)cc4NC(=O)[C@H]3Cc3ccccn3)cc2C)nc1
pIC50: 8.15
--
smiles representation: Cn1cc(C(=O)c2ccc(CN3C(=O)c4ccc(Cl)cc4NC(=O)[C@H]3Cc3ccccn3)cc2)c2ncccc21
pIC50: 8.22
--
smiles representation: Cc1cnc(NC(=O)c2ccc(CN3C(=O)c4ccc(Cl)cc4NC(=O)[C@H]3Cc3ccccn3)cc2C)nc1
pIC50: 8.40
--
smiles representation: COc1cnc(NC(=O)c2ccc(CN3C(=O)c4ccc(Cl)cc4NC(=O)[C@H]3Cc3ccccn3)cc2Cl)cn1
pIC50: 7.68
--
smiles representation: Cn1ccnc1C(=O)c1ccc(CN2C(=O)c3ccc(Cl)cc3NC(=O)[C@H]2Cc2ccccn2)cc1
pIC50: 6.72
